Test: Human HepG2 cell viability assay in 384 well format
Assay type: toxicity, cell-based
Parameters: dose 125 nL, time 70.5 hour; concentration not given beside the values
Conditions: HepG2 cells, read-out: Inhibition

compound: CC1N(CC2CC2)C(=O)COC12CCN(C(=O)c1cccs1)CC2 (stereo not given)
cytotoxicity at 70.5 h, %: -5.2
//
compound: Cc1cc(C(=O)N2CCn3cc(CN(C)C)nc3C2)no1
cytotoxicity at 70.5 h, %: -7.02
//
compound: O=S(=O)(CCN1CCc2c(ncn2C2CC2)C1)c1ccccc1
cytotoxicity at 70.5 h, %: 16.5
//
compound: CCc1nc2c(NCC3COc4cc(OC)ccc4C3)ncnc2o1 (stereo not given)
cytotoxicity at 70.5 h, %: -5.75
//
compound: O=C1COC2(CCN(Cc3ccncc3)CC2)CN1c1ccccc1
cytotoxicity at 70.5 h, %: 2.43
//
compound: c1ccc(NC[C@@H]2CCC[C@@H]3CN(Cc4csnn4)C[C@@H]32)nc1
cytotoxicity at 70.5 h, %: -5.27
//
compound: CC(C)Cc1cn(C2CCN(C(C)CCn3cccn3)CC2)nn1 (stereo not given)
cytotoxicity at 70.5 h, %: -11.6
//
compound: Cc1cc(=O)[nH]c(-n2nc(-c3cccs3)cc2N)n1
cytotoxicity at 70.5 h, %: 13.9
//
compound: Cn1cc(C(=O)NCCCN2CCCCCC2=O)c(-c2cccnc2)n1
cytotoxicity at 70.5 h, %: 11
//
compound: CCNC(=O)CN(CC)C(=O)c1cc(-c2cccc(Cl)c2)no1
cytotoxicity at 70.5 h, %: -0.184
//
compound: CN(C)C(=O)Cc1nc(CN2CCCCC2Cn2cncn2)cs1 (stereo not given)
cytotoxicity at 70.5 h, %: 23.2
//
compound: O=C(c1cncc(Br)c1)N1CCCc2c(F)cc(F)cc21
cytotoxicity at 70.5 h, %: -3
//
compound: CCc1cnc(CN(C)C(=O)NC2CCN(CC3CC3)C2)s1 (stereo not given)
cytotoxicity at 70.5 h, %: 25.5
//
compound: CC(C)(O)CNC(=O)NCc1nccn1CCc1ccccc1
cytotoxicity at 70.5 h, %: -1.1
//
compound: Cc1ncccc1C(=O)NCC(C)Oc1ccc(F)cc1 (stereo not given)
cytotoxicity at 70.5 h, %: 24.4

* * *

Below: a set of entries, each annotated with reported cytotoxicity at 70.5 h.
Experiment: Human HepG2 cell viability assay in 384 well format
Assay type: toxicity, cell-based
Design: dose 125 nL, time 70.5 hour; concentration not given beside the values
Conditions: HepG2 cells, read-out: Inhibition

compound: CN(C)c1cc(CC(NC(=O)C2CC2)c2ccccc2)nc(C2CC2)n1 (stereo unspecified)
cytotoxicity at 70.5 h (%): 16.9
//
compound: Cc1cc(C(=O)N2CCC3(CCNCC3)CC2)c2cccc(C)c2n1
cytotoxicity at 70.5 h (%): 43.8
//
compound: O=C(c1cnccn1)N1CCc2ncc(CN3CCOCC3)n2CC1
cytotoxicity at 70.5 h (%): -8.64
//
compound: COCCN1CCN(CC(=O)N(C)Cc2ccc(C)o2)CC1C (stereo unspecified)
cytotoxicity at 70.5 h (%): -12.6
//
compound: CCCC(C)C(=O)Nc1ccc(OC)nc1N1CCN(C(C)=O)CC1 (stereo unspecified)
cytotoxicity at 70.5 h (%): -6.89
//
compound: CO[C@@H]1CCN(C(=O)Cc2ccc(F)cc2)[C@@H]1Cc1cccnc1
cytotoxicity at 70.5 h (%): -3.63

* * *

The following compounds are shown together with reported cytotoxicity at 70.5 h values.
Test: Human HepG2 cell viability assay in 384 well format
Assay type: toxicity, cell-based
Set-up: dose 125 nL, time 70.5 hour; concentration not given beside the values
Conditions: HepG2 cells, read-out: Inhibition
measurement.label: cytotoxicity at 70.5 h (%)

compound: O=C(c1ccc[nH]1)N1CCc2c(COCc3ccncc3)cncc2C1
measurement.label: cytotoxicity at 70.5 h
unit.descriptor: %
experimental.value: -3.15
--
compound: CCS(=O)(=O)N1CCc2ccc(NC(=O)Nc3cccc(C)c3)cc21
measurement.label: cytotoxicity at 70.5 h
unit.descriptor: %
experimental.value: 17.9
--
compound: c1cc(CN2Cc3nccn3CC(Cn3cncn3)C2)ccn1 (stereo not given)
measurement.label: cytotoxicity at 70.5 h
unit.descriptor: %
experimental.value: 3.67
--
compound: CN(CCc1nccs1)C(=O)C1(C#N)CCCCC1
measurement.label: cytotoxicity at 70.5 h
unit.descriptor: %
experimental.value: 0.343
--
compound: COCCn1cnnc1C(C)NC(=O)c1[nH]c2c(C)cc(C)cc2c1C (stereo not given)
measurement.label: cytotoxicity at 70.5 h
unit.descriptor: %
experimental.value: 14
--
compound: Cc1ccc(S(=O)(=O)n2ccn(C(=O)CC(C)C)c2=O)cc1
measurement.label: cytotoxicity at 70.5 h
unit.descriptor: %
experimental.value: -19.3
--
compound: Cn1cc(CN2CCN(CC3(c4ccccc4)CC3)CC2)cn1
measurement.label: cytotoxicity at 70.5 h
unit.descriptor: %
experimental.value: -11.2
--
compound: COCCC1COC2(CCN(C(=O)c3ccsc3)CC2)C1 (stereo not given)
measurement.label: cytotoxicity at 70.5 h
unit.descriptor: %
experimental.value: -12.7
--
compound: CCN(CC1CCOCC1)C(=O)C1CC(=O)N(Cc2cccnc2)C1 (stereo not given)
measurement.label: cytotoxicity at 70.5 h
unit.descriptor: %
experimental.value: -5.23
--
compound: O=C(NC1CC1)c1cc(Sc2ncccn2)ccn1
measurement.label: cytotoxicity at 70.5 h
unit.descriptor: %
experimental.value: -14.6
--
compound: Cc1cnc(NC(=O)c2ccc(C3CCCN3CC(C)C)s2)s1 (stereo not given)
measurement.label: cytotoxicity at 70.5 h
unit.descriptor: %
experimental.value: -5.46
--
compound: CCC(C(=O)N1CCS(=O)(=O)CC1)n1cccn1 (stereo not given)
measurement.label: cytotoxicity at 70.5 h
unit.descriptor: %
experimental.value: -4.81
--
compound: Cc1noc(C)c1-c1cccc(C2CCN(CC(=O)N(C)C)CC2)n1
measurement.label: cytotoxicity at 70.5 h
unit.descriptor: %
experimental.value: -2.68
--
compound: Cc1cc(Oc2ccc(NC(=O)C3CC3)cc2)cc(C2CCNCC2)n1
measurement.label: cytotoxicity at 70.5 h
unit.descriptor: %
experimental.value: -4.04
--
compound: CN(CC(=O)N1CCN(c2ccccn2)CC1)c1ccc(Cl)cn1
measurement.label: cytotoxicity at 70.5 h
unit.descriptor: %
experimental.value: -17.2
--
compound: CCc1nc(C2CCCN2c2ncc(C(N)=O)cc2Cl)no1 (stereo not given)
measurement.label: cytotoxicity at 70.5 h
unit.descriptor: %
experimental.value: 3.61
--
compound: Cc1cnc(C(=O)N2CCCN(Cc3cnn(C(C)C)c3)CC2)cn1
measurement.label: cytotoxicity at 70.5 h
unit.descriptor: %
experimental.value: 17.6
--
compound: CCCN1CCCN(C(=O)Nc2ccc3c(c2)OCO3)CC1
measurement.label: cytotoxicity at 70.5 h
unit.descriptor: %
experimental.value: -7.91
--
compound: Clc1ccccc1OC1CN(CC2CCOC2)C1 (stereo not given)
measurement.label: cytotoxicity at 70.5 h
unit.descriptor: %
experimental.value: 8.25
--
compound: O=C1C(Nc2nccn3cnnc23)CCN1c1cccc(Cl)c1 (stereo not given)
measurement.label: cytotoxicity at 70.5 h
unit.descriptor: %
experimental.value: -11.2
--
compound: O=C(CCCc1ccc(Cl)cc1)N1CCC(c2nnc[nH]2)CC1
measurement.label: cytotoxicity at 70.5 h
unit.descriptor: %
experimental.value: -2.6
--
compound: CC(C)C(=O)N1CCCC(c2cncc(Oc3cccnc3)n2)C1 (stereo not given)
measurement.label: cytotoxicity at 70.5 h
unit.descriptor: %
experimental.value: -2.17
--
compound: O=C1CN(C(=O)C2CN(c3ccccc3)CCO2)CCN1 (stereo not given)
measurement.label: cytotoxicity at 70.5 h
unit.descriptor: %
experimental.value: -5.72
--
compound: COCCc1noc(CN(C)C2CCCN(c3cccnn3)C2)n1 (stereo not given)
measurement.label: cytotoxicity at 70.5 h
unit.descriptor: %
experimental.value: 22.9
--
compound: Cc1ccc(C(=O)Nc2nc(C)no2)cc1
measurement.label: cytotoxicity at 70.5 h
unit.descriptor: %
experimental.value: -4.79

* * *

Reported cytotoxicity at 70.5 h values for a set of molecules
Test: Human HepG2 cell viability assay in 384 well format
Type: toxicity, cell-based
Design: dose 125 nL, time 70.5 hour; concentration not given beside the values
Details: HepG2 cells, read-out: Inhibition

molecule: Cc1nc(C)n(CC(C)C(=O)N2CCC(CN3CCOCC3)CC2)n1 (configuration not stated)
cytotoxicity at 70.5 h / %: 4.58
//
molecule: Cc1n[nH]c(CN2CCN(c3ncnc4scc(C)c34)CC2)c1Cl
cytotoxicity at 70.5 h / %: -8.15
//
molecule: O=C(C[C@@H]1COC[C@H]2CN(C(=O)c3cccnc3)C[C@@H]12)N1CCCC1
cytotoxicity at 70.5 h / %: 1.64
//
molecule: CCOC(=O)C(C)NC(=O)CCSc1ccc(F)cc1 (configuration not stated)
cytotoxicity at 70.5 h / %: -2.94
//
molecule: Cn1cnc2cc(CCC(=O)Nc3nc[nH]n3)ccc21
cytotoxicity at 70.5 h / %: -0.94
//
molecule: CCC(=O)N1CCC2(CC1)CC(Oc1ccccc1)CO2 (configuration not stated)
cytotoxicity at 70.5 h / %: -4.49
//
molecule: Cc1nc(C)n(CC2CCCN(Cc3nnc(C4CC4)o3)C2)n1 (configuration not stated)
cytotoxicity at 70.5 h / %: -7.21
//
molecule: CS(=O)(=O)CCCNC(=O)Nc1sc2ccccc2c1Cl
cytotoxicity at 70.5 h / %: -4.03
//
molecule: COC(=O)c1cccn1C1CCN(C(=O)c2cc(F)ccc2F)CC1
cytotoxicity at 70.5 h / %: -1.51
//
molecule: Cc1cc(NC(C)Cc2cccnc2)n2nccc2n1 (configuration not stated)
cytotoxicity at 70.5 h / %: -12
//
molecule: COc1ncccc1CNC(=O)N1CCCC1c1ccsc1 (configuration not stated)
cytotoxicity at 70.5 h / %: -0.312
//
molecule: Cc1cccc(-n2nnnc2C(C)(C)Nc2ccccc2C)c1
cytotoxicity at 70.5 h / %: 0.855
//
molecule: Fc1ccc(CN2CCCC(c3nccnc3-n3ccnc3)C2)cc1 (configuration not stated)
cytotoxicity at 70.5 h / %: 3.95
//
molecule: O=C1CCC2(CCCN(C(=O)Cc3cccs3)C2)N1 (configuration not stated)
cytotoxicity at 70.5 h / %: -5
//
molecule: N#Cc1ccccc1OCCN1CCN(C(=O)C2CCCC2)CC1
cytotoxicity at 70.5 h / %: 7.87
//
molecule: CNC(=O)c1cnc(C)nc1CCNC(=O)CCc1ccccc1
cytotoxicity at 70.5 h / %: 7.59
//
molecule: Cc1ncoc1C(=O)N1C[C@@H]2COC[C@]2(c2nnc(C3CC3)o2)C1
cytotoxicity at 70.5 h / %: -9.55
//
molecule: Cc1cccc(CN2CCOCC3(CCN(C4CCOCC4)C3)C2)c1 (configuration not stated)
cytotoxicity at 70.5 h / %: 9.31
//
molecule: Cc1nc2cc(NCc3cnn(C)c3)ccc2n1C
cytotoxicity at 70.5 h / %: -2.05
//
molecule: CCC(CC)(CNC(=O)OC(C)(C)C)NC(=O)c1cnccn1
cytotoxicity at 70.5 h / %: 0.78
//
molecule: Cc1ccsc1CNC(=O)NC(C)c1ccc2c(c1)CCC(=O)N2 (configuration not stated)
cytotoxicity at 70.5 h / %: -13.4
//
molecule: c1cc(CN2C[C@@H]3OCCN(CC4CC4)[C@@H]3C2)n[nH]1
cytotoxicity at 70.5 h / %: -7.71
